- Tested on: Tov-21-G
- PROTOCOL NOTES: Primary qHTS to identify gynecologic anti-cancer compounds using libraries of approved drugs and bioactive compounds (AID 1345084); further: nearly all actives have a fitted effect of over 55% in size
- MEASUREMENT PARAMETERS: Gynecologic cancer cell panel viability, ATPlite luminescence, 48 h; series mostly up to 57.5 µM
Inconclusive results are not listed. Calls of active or inactive are those of the source. The call rests on the fitted dose curve; in most records, active means well fitted cell-killing curve with a large enough effect; inconclusive means small, poorly fitted or top-dose-only effect, or effect the other way; inactive means flat fitted curve, though single readings scatter.
METRIC NAME: activity change, negative = cytotoxicity

compound=C=CCc1ccc(O[C@@H]2O[C@H](CO[C@@H]3O[C@H](CO)[C@@H](O)[C@H](O)[C@H]3O)[C@@H](O)[C@H](O)[C@H]2O)c(O)c1 metric_name="activity change, negative = cytotoxicity" result=inactive
compound="C[C@@H]1O[C@@H](OC[C@H]2O[C@@H](OCC3CCC4CC3C4(C)C)[C@H](O)[C@@H](O)[C@@H]2O)[C@H](O)[C@H](O)[C@H]1O (stereo partly drawn)" metric_name="activity change, negative = cytotoxicity" result=inactive
compound="C=CC(C)(CC/C=C(\\C)CC/C=C(\\C)CC(O)/C=C(\\C)C(=O)O)O[C@@H]1O[C@H](CO)[C@@H](O)[C@H](O)[C@H]1O[C@@H]1O[C@H](CO)[C@@H](O)[C@H](O)[C@H]1O (stereo partly drawn)" metric_name="activity change, negative = cytotoxicity" result=inactive
